targetEntity: JAK2 (Homo sapiens, UniProt O60674)
Sequence (O60674 whole entry): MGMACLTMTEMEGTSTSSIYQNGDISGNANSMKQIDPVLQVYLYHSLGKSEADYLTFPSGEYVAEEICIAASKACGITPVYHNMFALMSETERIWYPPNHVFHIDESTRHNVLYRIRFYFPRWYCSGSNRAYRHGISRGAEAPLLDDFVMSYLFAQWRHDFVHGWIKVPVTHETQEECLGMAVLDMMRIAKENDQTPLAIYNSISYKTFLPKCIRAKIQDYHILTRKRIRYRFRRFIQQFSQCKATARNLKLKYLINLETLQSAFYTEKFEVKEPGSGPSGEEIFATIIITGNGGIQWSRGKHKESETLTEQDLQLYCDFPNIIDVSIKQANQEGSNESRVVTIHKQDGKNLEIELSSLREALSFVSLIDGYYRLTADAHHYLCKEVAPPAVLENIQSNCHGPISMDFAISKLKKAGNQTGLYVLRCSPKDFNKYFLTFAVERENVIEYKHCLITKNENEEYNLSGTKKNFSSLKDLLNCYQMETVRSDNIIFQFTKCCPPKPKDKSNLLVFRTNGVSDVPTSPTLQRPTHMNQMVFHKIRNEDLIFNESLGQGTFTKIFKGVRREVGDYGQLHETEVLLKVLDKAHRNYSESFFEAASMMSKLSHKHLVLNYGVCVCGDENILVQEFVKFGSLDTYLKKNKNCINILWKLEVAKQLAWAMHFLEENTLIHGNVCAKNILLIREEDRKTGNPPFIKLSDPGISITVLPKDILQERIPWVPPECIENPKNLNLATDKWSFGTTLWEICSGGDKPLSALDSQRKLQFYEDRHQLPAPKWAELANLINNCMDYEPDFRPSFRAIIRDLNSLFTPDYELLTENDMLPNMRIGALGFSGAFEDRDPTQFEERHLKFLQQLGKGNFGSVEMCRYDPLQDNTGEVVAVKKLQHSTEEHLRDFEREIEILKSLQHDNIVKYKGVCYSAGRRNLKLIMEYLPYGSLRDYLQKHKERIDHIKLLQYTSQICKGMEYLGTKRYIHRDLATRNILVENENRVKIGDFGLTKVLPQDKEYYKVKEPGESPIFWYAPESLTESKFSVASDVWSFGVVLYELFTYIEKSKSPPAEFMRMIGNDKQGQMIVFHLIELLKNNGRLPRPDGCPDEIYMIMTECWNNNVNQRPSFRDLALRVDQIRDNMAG
experiment: Kinase-Glo Max kinase assay, purified enzyme
Type: biochemical
studyConditions: Enzyme IC50 JAK2, 0.1 mM ATP
assayMetric: IC50 (nM)

(P) Cc1cnc(Nc2ccc(OCCOc3ccc(/N=N/c4ccc(C(=O)NCCC(=O)O)cc4)cc3C(=O)O)cc2)nc1Nc1cccc(S(=O)(=O)NC(C)(C)C)c1
(Q) Cc1cnc(Nc2ccc(OCCO)cc2)nc1Nc1cccc(S(=O)(=O)NC(C)(C)C)c1
Q: Return label of the item with the larger IC50. Candidates: P , Q . Please respond with the label that marks your chosen entry.
A: P

---

targetEntity: UniProtKB P52333
Sequence (P52333 1-1124): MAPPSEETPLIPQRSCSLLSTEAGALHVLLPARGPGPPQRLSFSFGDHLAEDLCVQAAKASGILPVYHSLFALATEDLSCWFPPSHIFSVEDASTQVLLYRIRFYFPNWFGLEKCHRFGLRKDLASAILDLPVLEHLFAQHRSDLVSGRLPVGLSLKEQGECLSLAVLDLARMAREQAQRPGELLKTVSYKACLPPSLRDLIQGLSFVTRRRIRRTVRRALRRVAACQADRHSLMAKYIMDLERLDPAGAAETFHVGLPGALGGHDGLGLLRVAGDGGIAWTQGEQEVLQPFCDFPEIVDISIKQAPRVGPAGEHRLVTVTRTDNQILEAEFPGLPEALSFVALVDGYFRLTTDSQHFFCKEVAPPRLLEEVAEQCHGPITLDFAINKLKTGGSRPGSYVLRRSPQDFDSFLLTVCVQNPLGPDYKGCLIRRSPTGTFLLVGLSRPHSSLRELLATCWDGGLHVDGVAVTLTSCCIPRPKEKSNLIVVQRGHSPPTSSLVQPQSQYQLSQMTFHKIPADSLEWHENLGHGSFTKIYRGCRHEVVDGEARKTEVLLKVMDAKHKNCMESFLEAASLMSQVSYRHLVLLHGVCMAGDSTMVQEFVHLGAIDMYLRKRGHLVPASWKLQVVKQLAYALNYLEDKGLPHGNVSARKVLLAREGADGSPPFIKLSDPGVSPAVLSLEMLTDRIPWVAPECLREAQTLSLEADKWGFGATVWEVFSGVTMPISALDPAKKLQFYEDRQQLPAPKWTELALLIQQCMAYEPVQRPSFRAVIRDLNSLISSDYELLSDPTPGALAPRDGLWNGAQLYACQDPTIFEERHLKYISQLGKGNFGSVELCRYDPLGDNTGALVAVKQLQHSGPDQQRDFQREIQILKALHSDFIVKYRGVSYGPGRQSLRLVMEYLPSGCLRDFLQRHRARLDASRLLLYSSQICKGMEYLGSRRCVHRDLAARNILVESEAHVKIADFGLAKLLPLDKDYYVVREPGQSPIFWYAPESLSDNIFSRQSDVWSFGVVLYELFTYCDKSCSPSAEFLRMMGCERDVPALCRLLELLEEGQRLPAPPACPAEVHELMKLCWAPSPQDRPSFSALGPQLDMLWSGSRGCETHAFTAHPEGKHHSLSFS
pIC50: −log10 of the molar value.
assayMetric: pIC50

(I) Cc1cnc(Nc2ccc(OCCO)cc2)nc1Nc1cccc(S(=O)(=O)NC(C)(C)C)c1 [MMT3-72-M2]
(II) Cc1cnc(Nc2ccc(OCCOc3ccc(/N=N/c4ccc(C(=O)NCCC(=O)O)cc4)cc3C(=O)O)cc2)nc1Nc1cccc(S(=O)(=O)NC(C)(C)C)c1 [MMT3-72]
Q: Which entry shows the lesser value of pIC50 here, I or II ? Please respond with the label that marks your chosen entry.
A: II
